- System: CCRIS mutagenicity, Ames/micronucleus/aberration tests
- assay.overview: CCRIS mutagenicity studies
- particulars: Test System: AMES SALMONELLA TYPHIMURIUM; Strain/Indicator: TA1538; Metabolic Activation: NONE; Method: STANDARD PLATE
- Description: The CCRIS database contains chemical records with carcinogenicity, mutagenicity, tumor promotion, and tumor inhibition test results. It was developed by the National Cancer Institute (NCI). Data are derived from studies cited in primary journals, current awareness tools, NCI reports, and other sources. Test results have been reviewed by experts in carcinogenesis and mutagenesis. CCRIS provides historical information from the years 1985 - 2011. It is no longer updated. […]
Active and inactive are the calls of the source. No rule for the calls is given here.
observable: mutagenic call

Solved cases below.
molecule	obs.value
C[C@@H]1O[C@@H](O[C@H]2C[C@](O)(C(=O)CO)Cc3c(O)c4c(c(O)c32)C(=O)c2ccccc2C4=O)C[C@H](N)[C@@H]1O	active; positive
O=C(O)CCc1ccccc1	inactive; negative
CNc1ccc(NCCO)c2c1C(=O)c1ccccc1C2=O	inactive; negative
Cc1cc(O)c2c(c1)C(=O)c1cccc(O)c1C2=O	inactive; negative
CCCCC(CC)COC(=O)c1ccc(C(=O)OCC(CC)CCCC)cc1 (centres undefined)	inactive; negative

Prompt: For CN(C)c1ccc(Cc2ccc(N(C)C)cc2)cc1 , what is its reported mutagenic call?
Completion: inactive; negative

Prompt: For C[C@@H]1Cc2c(Cl)cc(C(=O)NC(Cc3ccccc3)C(=O)O)c(O)c2C(=O)O1 (some centres undefined) , what is its reported mutagenic call?
Completion: inactive; negative

Prompt: For Cc1cc(=O)oc2c3c4c(cc12)CCCN4CCC3 , what is its reported mutagenic call?
Completion: inactive; negative

Prompt: For C=CCCCCCCCCCCCCC , what is its reported mutagenic call?
Completion: inactive; negative

Prompt: For CCCCCCCCCCCC(=O)OOC(=O)CCCCCCCCCCC , what is its reported mutagenic call?
Completion: inactive; negative

Prompt: For C=CC#N , what is its reported mutagenic call?
Completion: inactive; negative

Prompt: For C=CCc1ccc2c(c1)OCO2 , what is its reported mutagenic call?
Completion: inactive; negative

---

- Test system: CCRIS mutagenicity, Ames/micronucleus/aberration tests
- assay.overview: CCRIS mutagenicity studies
- particulars: Test System: AMES SALMONELLA TYPHIMURIUM; Strain/Indicator: TA1535; Metabolic Activation: NONE; Method: STANDARD PLATE
Activity calls are given as the source filed them. No rule for the calls is given here.
Hi there, use one of these labels in your reply, thanks! active, inactive

See these solved cases before continuing.
> print(dat)
                                compound  assigned.class
1                       CCO[Si](C)(C)OCC        inactive
2  O=C(O)C1OC1C(=O)O (centres undefined)        inactive
3                         Cc1cc(Cl)ccc1N        inactive

Prompt: Answer briefly: the call reported for CSC[C@H](NC(=O)COc1cccc2cnccc12)C(=O)N[C@@H](Cc1ccccc1)[C@H](O)C(=O)N1CSC[C@H]1C(=O)NC(C)(C)C in this assay.
Completion: inactive

---

- System: CCRIS mutagenicity, Ames/micronucleus/aberration tests
- assay.overview: CCRIS mutagenicity studies
- particulars: Test System: AMES SALMONELLA TYPHIMURIUM; Strain/Indicator: TA1537; Metabolic Activation: NONE; Method: STANDARD PLATE
Active and inactive are the calls of the source. The rule behind the calls is not given here.
Hi there, use one of these labels in your reply, thanks! active, inactive

See these solved cases before continuing.
> print(dat)
                                   compound  assigned.class
1  CN(Cc1cnc2nc(N)nc(N)c2n1)c1ccc(C(=O)N[C@@H](CCC(=O)O)C(=O)O)cc1        inactive
2        CCCCCCCCCCCC(=O)OOC(=O)CCCCCCCCCCC        inactive
3                 Nc1cc(-c2ccncc2)c[nH]c1=O        inactive
4                        FC(F)(F)c1ccccc1Cl        inactive
5                               NCCN1CCNCC1        inactive
6        CNc1ccc(NCCO)c2c1C(=O)c1ccccc1C2=O        inactive
7                          O=C(O)CCc1ccccc1        inactive
8                       C=CCc1ccc2c(c1)OCO2        inactive

Prompt: Answer briefly: the call reported for Cc1cccc(Nc2ccncc2S(=O)(=O)NC(=O)NC(C)C)c1 in this assay.
Completion: inactive

Prompt: Answer briefly: the call reported for O=[N+]([O-])c1ccccc1C(F)(F)F in this assay.
Completion: inactive

Prompt: Answer briefly: the call reported for C[C@]12CC[C@H](O)C[C@@H]1CC[C@@H]1[C@@H]2CC[C@]2(C)NC(=O)CC[C@@H]12 in this assay.
Completion: inactive
